- System under test: IRAK4 (Homo sapiens (Human))
- Sequence (Q9NWZ3 whole entry, species assumed): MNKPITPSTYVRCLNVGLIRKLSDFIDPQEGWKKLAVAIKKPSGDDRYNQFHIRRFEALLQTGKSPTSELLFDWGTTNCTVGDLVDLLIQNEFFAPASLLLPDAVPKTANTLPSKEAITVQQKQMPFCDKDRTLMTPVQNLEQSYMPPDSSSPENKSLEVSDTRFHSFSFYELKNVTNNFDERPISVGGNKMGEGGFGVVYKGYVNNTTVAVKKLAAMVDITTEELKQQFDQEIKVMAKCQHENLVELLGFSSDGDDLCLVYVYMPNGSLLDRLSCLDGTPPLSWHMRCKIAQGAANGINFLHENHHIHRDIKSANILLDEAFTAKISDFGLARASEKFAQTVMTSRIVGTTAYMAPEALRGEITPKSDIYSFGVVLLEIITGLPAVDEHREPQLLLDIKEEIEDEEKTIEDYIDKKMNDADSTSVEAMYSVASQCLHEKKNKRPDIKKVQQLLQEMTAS
- Experimental details: IRAK4 Inhibition Assay
- Assay type: biochemical
- Condition label: IRAK4 Inhibition Assay; ATP 500 μM; read-out: IRAK4 IC50
- Protocol: The assays were performed in U-bottom 384-well plates. […] The reaction was initiated by the combination of IRAK4 with substrates and test compounds. The reaction mixture was incubated at room temperature for 60 min. and terminated by adding 45 μL of 35 mM EDTA to each sample. The reaction mixture was analyzed on the Caliper LABCHIP® 3000 (Caliper, Hopkinton, Mass.) by electrophoretic separation of the fluorescent substrate and phosphorylated product.
Quantity: IC50
# output: numeric value plus its unit

According to the records, this compound CC(C)CC(=O)NCc1cnc2c(cnn2-c2cc(NC(C)C)c(C(=O)NC[C@@H](F)C(C)(C)O)cn2)c1 displays IC50 of 16.9 nM

Value of IC50 reported for the compound CNC(=O)[C@H]1CC[C@H](NC(=O)c2cnc(-n3ncc4cc(C#N)cnc43)cc2N[C@@H](C)CF)CC1 is 16 nM

Entry CC(C)(O)[C@H](F)CNC(=O)c1cnc(-n2ccc3cc(C#N)cnc32)cc1Nc1cccc(O)c1 , IC50 reported as 2.2 nM

Recorded IC50 (compound CC(C)Nc1cc(-n2ccc3cnc(N4CC[C@@H](O)C4)nc32)ncc1C(=O)NC[C@@H](F)C(C)(C)O ): 4.7 nM

Looking up CC(C)Nc1cc(-n2ncc3cc(C#N)cnc32)ncc1C(=O)Nc1ccc(N2CCOCC2)cc1 , I found its IC50 recorded as 5.1 nM

Form: compound = CC(CCO)Nc1cc(-n2ccc3cc(C#N)cnc32)ncc1C(=O)NC[C@@H](F)C(C)(C)O (single isomer, unassigned) [Example 21] ; IC50 = 2.3 nM

// IC50 value for CC(C)Nc1cc(-n2ncc3cc(C#N)c(N)nc32)ncc1C(=O)NC1CCCCC1 : 6.6 nM

----------
- System under test: UniProtKB Q9NWZ3
- Experimental details: IRAK4 Inhibition Assay
- Format: biochemical
- Condition label: IRAK4 Inhibition Assay; ATP 500 μM; read-out: IRAK4 IC50
Quantity: pIC50
Please treat pIC50 as minus the base-10 logarithm of the molar concentration.

The reported pIC50 of the molecule CC(C)Nc1cc(-n2ncc3cc(C#N)cnc32)ncc1C(=O)NCC(F)C1(O)COC1 (stereo not shown) [Example 248] was 8.44

// field: pIC50; key: CC1(Nc2cc(-n3ncc4cc(C#N)cnc43)ncc2C(=O)NC[C@@H](F)C(C)(C)O)CC1 [Example 292] ; value = 8.57

Lookup result for CC(C)Nc1cc(-n2ccc3cc(C#N)cnc32)ncc1C(=O)N[C@H]1CC[C@](O)(c2cccnc2)CC1 [Example 177] ; measured pIC50: 8.44

Input CC(C)Nc1cc(-n2ncc3cc(C#N)cnc32)ncc1C(=O)NCCC1(O)CCC(C)(O)CC1 (stereo not shown) [Example 277] . Output pIC50: 8.23

According to the records, this molecule CC(CCO)Nc1cc(-n2ccc3cc(C#N)cnc32)ncc1C(=O)NC[C@@H](F)C(C)(C)O (single isomer, unassigned) [Example 22] displays pIC50 of 8.74

The reported pIC50 of the molecule CC(C)Nc1cc(-n2ccc3cc(C#N)cnc32)ncc1C(=O)N[C@H]1CC[C@](O)(c2nccs2)CC1 [Example 175] was 8.30

Recorded pIC50 (molecule CC(C)Nc1cc(-n2ccc3cc(C#N)cnc32)ncc1C(=O)N[C@H]1CC[C@H](S(C)(=O)=O)CC1 [Example 102] ): 8.44

get_value(item= CC(C)Nc1cc(-n2ccc3cncnc32)ncc1C(=O)NCCC(C)(C)O [Example 44] , readout=pIC50) returns 8.38

Lab note: measured pIC50 of CC(C)Nc1cc(-n2ccc3cc(C#N)cnc32)ncc1C(=O)NC12CCC(O)(CC1)C2 [Example 14] was 7.83

Reported pIC50 of CCNC(=O)n1cc(Nc2cc(-n3ncc4cc(C#N)cnc43)ncc2C(=O)NC[C@@H](F)C(C)(C)O)cn1 [Example 386] : 8.82

Reported pIC50 ( CC(C)(O)[C@H](F)CNC(=O)c1cnc(-n2ncc3cc(C#N)cnc32)cc1Nc1cnn(S(C)(=O)=O)c1 [Example 385] ) = 9.05

For CC(C)Nc1cc(-n2ncc3cc(C#N)cnc32)ncc1C(=O)Nc1ccc(OCCN(C)C)cn1 [Example 225] the molecule record lists pIC50 as 8.04

pIC50 reported for this molecule CC(C)Nc1cc(-n2ncc3cc(C#N)cnc32)ncc1C(=O)NCCN1CCOCC1 [Example 204] : 8.31

Recorded result, CCC(O)(CC)[C@H](F)CNC(=O)c1cnc(-n2ncc3cncnc32)cc1NC(C)C [Example 149] , pIC50: 8.03

pIC50 measured on CNC(=O)c1cnc(-n2ncc3cc(C#N)c(N)nc32)cc1NC(C)C [Example 305] = 8.04

pIC50 reading for CC(C)Nc1cc(-n2ncc3cc(C#N)cnc32)ncc1C(=O)NC[C@@H](F)C(C)C [Example 312] : 8.04

----------
- System under test: UniProt:Q9NWZ3
- Experimental details: IRAK4 Inhibition Assay
- Format: biochemical
- Condition label: ATP 500 μM; IRAK4 0.6 nM; read-out: IRAK4 IC50
Provide the recorded pIC50 for the entries that follow.
pIC50 field: float, defined as -log10 of concentration (mol/L).

Record C[C@@H](F)CNc1cc(-n2ncc3cc(C#N)cnc32)ncc1C(=O)NC[C@@H](F)C(C)(C)O [Example 582] . Reported pIC50: 8.42

Field pIC50 (entry CC(C)(O)[C@H](F)CNC(=O)c1cnc(-n2ncc3cc(F)cnc32)cc1NC1CCCOC1 (some centres unmarked) [Example 547] ) reads 7.78

CC(C)(O)CCNC(=O)c1cnc(-n2ncc3cc(C#N)cnc32)cc1NC1COC1 [Example 553] has a reported pIC50 of 7.95

Consider CC(C)(O)[C@H](F)CNC(=O)c1cnc(-n2ccc3cc(C#N)cnc32)cc1NC1CCCC(CO)C1 (single isomer, unassigned) [Example 445] . Its measured pIC50 is 8.28

pIC50 for CC(C)(O)[C@H](F)CNC(=O)c1cnc(-n2ncc3cc(F)cnc32)cc1NC1CCC(F)C1 (some centres unmarked) [Example 621] is 8.40

# pIC50 (compound: CC(C)(O)[C@H](F)CNC(=O)c1cnc(-n2ncc3cc(C#N)cnc32)cc1N[C@H]1CC[C@H](NC2COC2)CC1 [Example 622] ) is 8.28

response.value for CO[C@H]1CC[C@H](NC(=O)c2cnc(-n3ncc4cc(C#N)cnc43)cc2NC2COC2)CC1 [Example 552] (field: pIC50) = 7.87

Value of measured pIC50 for the entry CCNc1cc(-n2ncc3cc(C#N)cnc32)ncc1C(=O)NC[C@@H](F)C(C)(C)O [Example 568] : 8.05

So, C[C@@H](CO)Nc1cc(-n2ccc3cc(F)cnc32)ncc1C(=O)N[C@H]1CC[C@H](C(C)(C)O)CC1 [Example 432] ? Its pIC50 was 8.68

The recorded pIC50 for entry CC(C)COC(=O)NCc1cnc2c(ccn2-c2cc(NC(C)C)c(C(=O)NC[C@@H](F)C(C)(C)O)cn2)c1 [Example 498] equals 8.24

For CC(C)(O)[C@H](F)CNC(=O)c1cnc(-n2ncc3cc(C#N)cnc32)cc1NCC(F)F [Example 574] the compound record lists pIC50 as 7.82

So for CC(C)(O)[C@H](F)CNC(=O)c1cnc(-n2ncc3cc(C#N)cnc32)cc1Nc1ccn(CC(F)(F)F)n1 [Example 408] , the logged pIC50 turned out to be 8.74

Please fill in: pIC50 reported for CC(C)Nc1cc(-n2ccc3cc(C#N)cnc32)ncc1C(=O)N[C@H]1CC[C@H](C(C)(C)O)C1 [Example 497] = 8.43

Consider CC(C)(O)[C@H](F)CNC(=O)c1cnc(-n2ccc3cc(C#N)cnc32)cc1N[C@@H]1CCN(S(C)(=O)=O)C1 [Example 465] . Its measured pIC50 is 8.89

pIC50 in this record for CC(C)(O)[C@H](F)CNC(=O)c1cnc(-n2ncc3cc(C#N)cnc32)cc1N[C@@H]1CCN(c2ncccn2)C1 [Example 537] : 8.17

GET /value?item= CC(C)(O)[C@H](F)CNC(=O)c1cnc(-n2cnc3cc(Cl)cnc32)cc1Nc1cnn(C(F)F)c1 [Example 400] &field=pIC50 returns 8.11

// field: pIC50; key: CC(C)Nc1cc(-n2ccc3cc(C#N)cnc32)ncc1C(=O)NCCNS(=O)(=O)N1CCOCC1 [Example 452] ; value = 8.28

Briefly, pIC50 measured for Cc1cc(Nc2cc(-n3ncc4cc(C#N)cnc43)ncc2C(=O)NC[C@@H](F)C(C)(C)O)[nH]n1 [Example 405] : 8.21

pIC50 reading for CCNc1cc(-n2ncc3cc(C#N)c(N)nc32)ncc1C(=O)NC[C@@H](F)C(C)(C)O [Example 577] : 8.49

Value of pIC50 reported for the compound CC(C)(O)[C@H](F)CNC(=O)c1cnc(-n2ncc3cc(F)cnc32)cc1NC1CCOCC1 [Example 562] is 7.90

For record C[C@@H](F)CNc1cc(-n2ccc3cc(C#N)cnc32)ncc1C(=O)NC[C@@H](F)C(C)(C)O [Example 506] the listed pIC50 is 8.82

Entry CC(C)CCC(=O)NCc1cnc2c(ccn2-c2cc(NC(C)C)c(C(=O)NC[C@@H](F)C(C)(C)O)cn2)c1 [Example 512] ; pIC50 = 8.46

Note to self: pIC50 recorded for CC(C)(O)[C@H](F)CNC(=O)c1cnc(-n2ncc3cc(C#N)cnc32)cc1N[C@H]1CC[C@](C)(O)CC1 [Example 608] was 7.90

# pIC50 (compound: CC(C)Nc1cc(-n2ccc3cc(C#N)cnc32)ncc1C(=O)NCC(F)C1(O)COC1 (centres unmarked) [Example 494] ) is 8.52

Entry CC(C)(O)[C@H](F)CNC(=O)c1cnc(-n2ncc3cc(C#N)cnc32)cc1N[C@@H]1C[C@H]1CO (single isomer, unassigned) [Example 642] ; pIC50 = 8.32

Entry CC(C)(CNc1cc(-n2ncc3cc(C#N)cnc32)ncc1C(=O)NC[C@@H](F)C(C)(C)O)OC(F)F [Example 601] — recorded pIC50 = 7.85

Input CC(C)(O)[C@H](F)CNC(=O)c1cnc(-n2ccc3cc(C#N)cnc32)cc1Nc1ccc2nc[nH]c2c1 [Example 439] . Output pIC50: 8.59

pIC50 measured on CCCCNC(=O)NCc1cnc2c(ccn2-c2cc(NC(C)C)c(C(=O)NC[C@@H](F)C(C)(C)O)cn2)c1 [Example 516] = 8.07

Memo: CC(C)CCNC(=O)c1cnc(-n2ncc3cc(C#N)c(N)nc32)cc1NC1COC1 [Example 560] , reported pIC50: 8.47

From: patent US9169252B2
